assay: Selectivity index, ratio of CC50 for human HFF cells infected with […] to EC50 for Human cytomegalovirus AD169 after 1 hr by plaque reduction assay; assay type: toxicity, cell-based; conditions: read-out: Selectivity Index
Experimental Endpoint: selectivity ratio at 1 h
In your answer, state the number alone without any accompanying words.

Quick one: selectivity ratio at 1 h for `CC1=C(/C=C/C(C)=C/C=C/C(C)=C/C=N/[N-]C(=S)[N-]C(=S)[N-]/N=C/C=C(C)/C=C/C=C(C)/C=C/C2=C(C)CCCC2(C)C)C(C)(C)CCC1.O.[Na+].[Na+].[Na+]` ?
5.7

###

assay: Cytotoxicity against human HFF cells infected with Human cytomegalovirus AD169 assessed as viable cells after 1 hr by plaque reduction assay; format: cell-based
Experimental Endpoint: CC50 at 1 h (µM)
Numbers only here, please. The scale is µM.

Quick one: CC50 at 1 h for `CC1=C(/C=C/C(C)=C/C=C/C(C)=C/C=N/[N-]C(=S)[N-]C(=S)[N-]/N=C/C=C(C)/C=C/C=C(C)/C=C/C2=C(C)CCCC2(C)C)C(C)(C)CCC1.O.[Na+].[Na+].[Na+]` ?
13.6

###

Listed next: entries and their corresponding selectivity ratio.
assay: Selectivity index, ratio of CC50 for human HFF cells infected with Cowpox virus (Brighton Red) to EC50 for Vaccinia virus Copenhagen; format: toxicity, cell-based; conditions: read-out: Selectivity Index

# example entries with known answers
NC(=S)N/N=C/c1ccc(Br)cc1F :: > 2.7
CN(C)c1ccc(/C=N/N=c2\[nH]c(-c3ccc(F)cc3)cs2)cc1 :: > 4.1
Nc1ccn(C[C@@H](CO)OCP(=O)(O)O)c(=O)n1 :: > 32.3
CC1=C(/C=C/C(C)=C/C=C/C(C)=C/C=N/[N-]C(=S)[N-]C(=S)[N-]/N=C/C=C(C)/C=C/C=C(C)/C=C/C2=C(C)CCCC2(C)C)C(C)(C)CCC1.O.[Na+].[Na+].[Na+] :: > 4.9

Kindly consider the entry below.
Quick one: selectivity ratio for `NC(=S)N/N=C/c1ccc(OC(F)(F)F)cc1` ?
> 1.2

###

Listed next: entries and their corresponding selectivity ratio.
assay: Selectivity index, ratio of CC50 for human Huh7ET cells infected with Hepatitis C virus to EC50 for Hepatitis C virus by luciferase reporter gene assay; type: toxicity, cell-based, Huh-7; settings: read-out: Selectivity Index
In your answer, state the number alone without any accompanying words.

NC(=S)N/N=C/c1ccc(OC(F)(F)F)cc1 :: 111

Quick one: selectivity ratio for `CC1=C(/C=C/C(C)=C/C=C/C(C)=C/C=N/[N-]C(=S)[N-]C(=S)[N-]/N=C/C=C(C)/C=C/C=C(C)/C=C/C2=C(C)CCCC2(C)C)C(C)(C)CCC1.O.[Na+].[Na+].[Na+]` ?
15.2

###

assay: Cytotoxicity against human Huh7ET cells infected with Hepatitis C virus assessed as ribosomal RNA level by RT-PCR; format: cell-based, Huh-7
Experimental Endpoint: CC50 (µM)
Numbers only here, please. The scale is µM.

CC1=C(/C=C/C(C)=C/C=C/C(C)=C/C=N/[N-]C(=S)[N-]C(=S)[N-]/N=C/C=C(C)/C=C/C=C(C)/C=C/C2=C(C)CCCC2(C)C)C(C)(C)CCC1.O.[Na+].[Na+].[Na+] :: 11.2

Kindly consider the entry below.
Quick one: CC50 for `NC(=S)N/N=C/c1ccc(OC(F)(F)F)cc1` ?
1.44
